// reported Max Plateau per item
# System: alpha-MyHC
# assay_procedure: alpha-MyHC cytoblot in neonatal rat ventricular myocytes (NRVM)
# Assay type: cell-based
# experimental_setup: Table 1, 72 hours, fitted maximum, percent fraction of low control (vehicle), in %

[
  {
    "molecule": "CCC(=O)C1=C(CC)Nc2sc(C(=O)c3cccc(C(=O)O)c3)c(N)c2C1c1ccccc1 (centres unmarked)",
    "Max Plateau": 220.00
  },
  {
    "molecule": "CCC(=O)C1=C(CC)Nc2sc(C(=O)c3ccc(Cl)cc3Cl)c(N)c2C1c1ccccc1 (centres unmarked)",
    "Max Plateau": 191.97
  },
  {
    "molecule": "CC(=O)C1=C(C)Nc2sc(C(=O)c3ccc(Cl)c(Cl)c3)c(N)c2C1c1ccc(C(C)(C)C)cc1 (centres unmarked)",
    "Max Plateau": 100.00
  },
  {
    "molecule": "CC(=O)C1=C(C)Nc2sc(C(=O)c3cccc([N+](=O)[O-])c3)c(N)c2C1c1ccc(C(=O)O)cc1 (centres unmarked)",
    "Max Plateau": 100.00
  },
  {
    "molecule": "CCC(=O)C1=C(CC)Nc2sc(C(=O)c3ccccc3)c(N)c2C1c1cccnc1 (centres unmarked)",
    "Max Plateau": 175.88
  },
  {
    "molecule": "CCC(=O)C1=C(CC)Nc2sc(C(=O)c3ccc(Cl)c(Cl)c3)c(N)c2C1c1cccc(Cl)c1 (centres unmarked)",
    "Max Plateau": 267.44
  },
  {
    "molecule": "CC(=O)C1=C(C)Nc2sc(C(=O)c3ccccc3)c(N)c2C1c1ccc(C(F)(F)F)cc1 (centres unmarked)",
    "Max Plateau": 186.67
  },
  {
    "molecule": "CC(=O)C1=C(C)Nc2sc(C(=O)c3ccccc3Cl)c(N)c2C1c1ccccc1 (centres unmarked)",
    "Max Plateau": 246.00
  }
]

====

// reported Max Plateau per item
# System: alpha-MyHC
# assay_procedure: alpha-MyHC cytoblot in neonatal rat ventricular myocytes (NRVM)
# Type: cell-based
# experimental_setup: Table 1, 72 hours, fitted maximum, percent fraction of low control (vehicle), in %

[
  {
    "molecule": "CCC(=O)C1=C(CC)Nc2sc(C(=O)c3ccc(F)cc3)c(N)c2C1c1ccccc1 (stereo not shown)",
    "Max Plateau": 241.90
  },
  {
    "molecule": "CCC(=O)C1=C(CC)Nc2sc(C(=O)c3ccc(Cl)c(Cl)c3)c(N)c2C1c1ccnc(F)c1 (stereo not shown)",
    "Max Plateau": 255.02
  },
  {
    "molecule": "CCC(=O)C1=C(CC)Nc2sc(C(=O)c3ccc(Cl)c(Cl)c3)c(N)c2C1c1cccc([N+](=O)[O-])c1 (stereo not shown)",
    "Max Plateau": 232.20
  },
  {
    "molecule": "CC(=O)C1=C(C)Nc2sc(C(=O)c3ccc(Cl)c(Cl)c3)c(N)c2C1c1ccccc1 (stereo not shown)",
    "Max Plateau": 207.74
  }
]

====

# Tested on: alpha-MyHC
# assay_procedure: alpha-MyHC cytoblot in neonatal rat ventricular myocytes (NRVM)
# Assay type: cell-based
# experimental_setup: Rattus norvegicus, Ventricular myocyte, Table 1, 72 hours, concentration giving 50% of maximum response

[
  {
    "compound": "CCC(=O)C1=C(CC)Nc2sc(C(=O)c3ccc(F)c(F)c3)c(N)c2C1c1ccccc1F (stereo not drawn)",
    "EC50": "4.02 nM"
  },
  {
    "compound": "CC(=O)C1=C(C)Nc2sc(C(=O)c3cccc([N+](=O)[O-])c3)c(N)c2C1c1ccccc1Cl (stereo not drawn)",
    "EC50": "85.7 nM"
  },
  {
    "compound": "CCC(=O)C1=C(CC)Nc2sc(C(=O)c3ccc(Cl)c(Cl)c3)c(N)c2C1c1ccncc1 (stereo not drawn)",
    "EC50": "24.8 nM"
  }
]

====

# System: alpha-MyHC
# assay_procedure: alpha-MyHC cytoblot in neonatal rat ventricular myocytes (NRVM)
# Type: cell-based
# experimental_setup: Rattus norvegicus, Ventricular myocyte, Table 2, 72 hours, concentration giving 50% of maximum response
pEC50: −log10 of the molar value.
recorded_metric: pEC50

[
  {
    "compound": "CCOC(=O)C1=C(CC)Nc2sc(C(=O)c3cccnc3)c(N)c2C1c1ccncc1F (stereo not shown)",
    "target_or_system": "alpha-MyHC",
    "val": 7.66
  }
]

====

# Test system: alpha-MyHC
# assay_procedure: alpha-MyHC cytoblot in neonatal rat ventricular myocytes (NRVM)
# Format: cell-based
# experimental_setup: Table 1, 72 hours, fitted maximum, percent fraction of low control (vehicle), in %
Cut-off 200 on Max Plateau, inclusive. At or above means class 1; below means class 0.

[
  {
    "compound": "CCC(=O)C1=C(CC)Nc2sc(C(=O)c3ccccc3F)c(N)c2C1c1ccccc1 (centres unmarked)",
    "target_or_system": "alpha-MyHC",
    "class": "class 1"
  },
  {
    "compound": "CCC(=O)C1=C(CC)Nc2sc(C(=O)c3ccc(Cl)c(Cl)c3)c(N)c2C1c1ccc(OC)cc1F (centres unmarked)",
    "target_or_system": "alpha-MyHC",
    "class": "class 0"
  },
  {
    "compound": "CCC(=O)C1=C(CC)Nc2sc(C(=O)c3ccc(F)c(F)c3)c(N)c2C1c1cc(F)cc(F)c1 (centres unmarked)",
    "target_or_system": "alpha-MyHC",
    "class": "class 1"
  },
  {
    "compound": "CC(=O)C1=C(C)Nc2sc(C(=O)c3ccc(Cl)c(Cl)c3)c(N)c2C1c1cccs1 (centres unmarked)",
    "target_or_system": "alpha-MyHC",
    "class": "class 0"
  },
  {
    "compound": "COc1cccc(C2C(C(C)=O)=C(C)Nc3sc(C(=O)c4ccccc4)c(N)c32)c1 (centres unmarked)",
    "target_or_system": "alpha-MyHC",
    "class": "class 0"
  },
  {
    "compound": "CC(=O)C1=C(C)Nc2sc(C(=O)c3ccccc3)c(N)c2C1c1ccc(F)cc1 (centres unmarked)",
    "target_or_system": "alpha-MyHC",
    "class": "class 1"
  },
  {
    "compound": "CC(=O)C1=C(C)Nc2sc(C(=O)c3ccccc3)c(N)c2C1C1CCCCC1 (centres unmarked)",
    "target_or_system": "alpha-MyHC",
    "class": "class 0"
  },
  {
    "compound": "CC(=O)C1=C(C)Nc2sc(C(=O)c3ccc(Cl)c(Cl)c3)c(N)c2C1c1ccc(Br)cc1 (centres unmarked)",
    "target_or_system": "alpha-MyHC",
    "class": "class 0"
  }
]

Cited source: patent US20090306373A1
